system: ICS; test: qHTS profiling for inhibitors of Plasmodium falciparum proliferation (AID 504749); note: nearly all actives have a fitted effect of over 60% in size; conditions: P. falciparum in erythrocytes, SYBR Green DNA, 72 h; series mostly up to 28.7 µM
Records with an inconclusive call do not appear. Calls of active or inactive are those of the source. Calls come from the whole dose curve; as a rule, active = well fitted inhibition curve with a large enough effect; inconclusive = small, poorly fitted or top-dose-only effect; inactive = flat fitted curve, though single readings scatter.
Your response should consist of one outcome taken from active, inactive

compound: C/C=C1\C2C=C(C)CC1(N)c1ccc(=O)[nH]c1C2 (stereo unspecified)
category.label: inactive
//
compound: CCCCC(=O)N(Cc1ccc(-c2ccccc2-c2nn[nH]n2)cc1)C(C(=O)O)C(C)C (stereo unspecified)
category.label: active
//
compound: CCOC(=O)C(CCc1ccccc1)NC1CCc2ccccc2N(CC(=O)O)C1=O (stereo unspecified)
category.label: active

Any idea what this test logged for CC(=O)[C@H]1CC[C@H]2C3CC=C4C[C@@H](O)CC[C@]4(C)C3CC[C@]12C (stereo partly specified) ? inactive

Any idea what this test logged for CN1CCN(CCC=C2c3ccccc3Sc3ccc(S(=O)(=O)N(C)C)cc32)CC1 ? active

Any idea what this test logged for C[C@@H](C(=O)O)c1ccc(-c2ccccc2)c(F)c1 ? inactive

====

assay: qHTS for differential inhibitors of proliferation of Plasmodium falciparum line 7G8 (AID 1815); conditions: Plasmodium falciparum 7G8 proliferation inhibition; series mostly up to 28.7 µM;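 note: parasite growth measured after three days of incubation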
Inconclusive results are not listed. Calls of active or inactive are those of the source. Calls come from the whole dose curve; as a rule, active = well fitted curve in the direction sought with a large enough effect; inconclusive = small, poorly fitted or top-dose-only effect, or another doubt; inactive = no such curve, though single readings can be large or run the other way.
Your response should consist of one outcome taken from Y (active), N (inactive)

Here are 3 compounds together with their reported answers.
compound: Cc1ccc(OCC(O)C(C)NC(C)C)c2c1CCC2 (stereo not drawn)
category.label: Y
--
compound: Nc1c(S(=O)(=O)O)cc(Nc2ccc(Nc3nc(Cl)nc(Nc4ccc(S(=O)(=O)O)cc4)n3)c(S(=O)(=O)O)c2)c2c1C(=O)c1ccccc1C2=O
category.label: N
--
compound: O=S(=O)(NCCNC/C=C/c1ccc(Br)cc1)c1cccc2cnccc12
category.label: Y

Here is another compound to look at.
Any idea what this test logged for Cn1cnc2c(NC3CCCC3)ncnc21 ? N

====

experiment: qHTS for Inhibitors of Plasmodium falciparum (GB4) proliferation (AID 504315); note: nearly all actives have a fitted effect of over 50% in size; conditions: P. falciparum GB4 in erythrocytes, SYBR Green DNA, 72 h; series mostly up to 6.7 µM
Inconclusive results are not listed. Active and inactive are the calls of the source. The call rests on the fitted dose curve; in most records, active means well fitted inhibition curve with a large enough effect; inconclusive means small, poorly fitted or top-dose-only effect, or effect the other way; inactive means flat fitted curve, though single readings scatter.
Your response should consist of one outcome taken from true (1) = active, false (0) = inactive

molecule: CC1(C)O[C@H]2OC([C@H](O)CON3C(=O)c4ccccc4C3=O)[C@H](O)[C@@H]2O1 (some centres undefined)
category.label: false (0)
--
molecule: C#C[C@@H]1C=C[C@H](Oc2ccc(OC)cc2)[C@H](CO)O1
category.label: false (0)
--
molecule: COC(=O)C1=C(C)N(Cc2ccccc2)C(=O)NC1c1cccc(C(F)(F)F)c1 (centres undefined)
category.label: false (0)
--
molecule: CC(C)=CCCC(C)=CCON=C1C[C@@H](O)[C@@H](O)[C@@H]2[C@H]3C(=O)N(Cc4ccccc4)C(=O)[C@@H]3CC[C@@H]12
category.label: false (0)
--
molecule: CCCNC(=O)OC[C@H]1O[C@H](CCON=C(C)CCN2CCCc3nc(C)c(C)cc32)C=C[C@H]1Oc1ccc(OC)cc1
category.label: true (1)

Here is another molecule to look at.
Any idea what this test logged for CC1(OC(=O)C2CCCC2)C(=O)C=C2C=C3CCCN3C=C2C1=O (centres undefined) ? false (0)
